Data origin: PubChem BioAssay (NCI)

Could you please report measured growth for the items listed next?
- System: SW-620 colon
- TEST DETAILS: NCI-60 one-dose screen, 48 h (100 = growth as untreated, 0 = no growth, -100 = all killed)
- MEASUREMENT CONDITIONS: 10 µM
This is part of a sample that, as a whole, favours compounds with a hit. Of some 83,000 tested, about 20% had one in any assay.
Write it as a number; the unit % goes unstated.

Problem: What measured growth goes with CCC(C)[C@H](NC(C)=O)C(=O)N[C@@H](CCCNC(=N)N)C(=O)N[C@@H](CCCCN)C(=O)N[C@@H](CC1CCC(O)CC1)C(=O)NC(C(=O)N[C@@H](CCSC)C(=O)N[C@@H](CCCNC(=N)N)C(=O)N[C@@]1(C)CCC/C=C\CCC[C@@](C)(C(=O)NC(C(=O)N[C@@H](CCC(=O)O)C(=O)N[C@@H](CC(C)C)C(=O)N[C@H](C(=O)N[C@@H](CCC(=O)O)C(N)=O)C(C)C)[C@@H](C)O)NC(=O)[C@H](CCC(N)=O)NC(=O)[C@H](CC(C)C)NC(=O)[C@H](CC(C)C)NC1=O)[C@@H](C)O (stereo not given in full) ?
Result: 90.4

Problem: Try CC(C)N(CCOc1cccc(-c2nc3sccn3c2-c2ccnc(S(C)(=O)=O)n2)c1)C(C)C next.
Result: 67.1

Problem: Try S=C(SSC(=S)N(c1ccccc1)c1ccccc1)N(c1ccccc1)c1ccccc1 next.
Result: 108

Problem: Try CCN1CC(CCN2CCOCC2)C(C(c2ccccc2)c2ccccc2)C1=O (stereo not given) next.
Result: 106

Problem: Try CC(=O)O[C@@]12CO[C@@H]1C[C@H](O)[C@@]1(C)C(=O)[C@H](O)C3=C(C)[C@@H](OC(=O)[C@H](O)[C@@H](NC(=O)OC(C)(C)C)c4ccccc4)C[C@@](O)([C@@H](OC(=O)c4ccccc4)C12)C3(C)C (stereo not given in full) next.
Result: 48.1

----------
- Tested on: SNB-75 CNS
- TEST DETAILS: NCI-60 one-dose screen, 48 h (100 = growth as untreated, 0 = no growth, -100 = all killed)
- MEASUREMENT CONDITIONS: 10 µM
The panel holds about 83,000 compounds, 20% with a hit somewhere; the sample as a whole holds those more often.
Define the label as 1 when growth is strictly less than 30% and as -1 in all remaining cases.

Problem: Please state whether growth is below 30% for CN1C(=O)C2(Nc3cc(Cl)ccc3S2)c2cc(Cl)ccc21 (stereo unspecified)
Result: -1

Problem: Try Cc1nn(-c2ccccc2)c2nc(Cl)c(C=O)c(-c3ccccc3)c12 next.
Result: -1

Problem: Try O=C1c2ccccc2C(=O)c2c1ccc1c(=O)n(-c3ccccc3C(F)(F)F)nnc21 next.
Result: -1

Problem: Try CC(=O)N[C@H](C(=O)N[C@@H](CCCNC(=N)N)C(=O)N[C@@H](CCCCN)C(=O)N[C@@H](CCCNC(=N)N)C(=O)NC(C(=O)N[C@@H](CC(C)C)C(=O)N[C@@H](CCCNC(=N)N)C(=O)N[C@@]1(C)CCC/C=C\CCC[C@@](C)(C(=O)N[C@@H](CCCNC(=N)N)C(=O)N[C@@H](CCC(=O)O)C(=O)N[C@@H](CC(C)C)C(=O)N[C@H](C(=O)N[C@@H](CCC(=O)O)C(N)=O)C(C)C)NC(=O)[C@H](CCC(N)=O)NC(=O)[C@H](CC(C)C)NC(=O)[C@H](CC(C)C)NC1=O)[C@@H](C)O)C(C)C (stereo partly specified) next.
Result: 1

Problem: Try c1ccc(/C(=N\Nc2ccc3ccccc3n2)c2ccccn2)cc1 next.
Result: 1

Problem: Try NS(=O)(=O)c1ccc(N2N=C(c3ccccc3)CCC2=O)cc1 next.
Result: -1
